# assayed system: JAK3 (Homo sapiens)
# Construct: purchased Thermo fisher PV3855
# run description: JAK3 biochemical assay (ADP-GLO Kinase Assay)
# condition summary: ratio of JAK3 IC50 to HPK1 IC50; first testing facility
assay metric: JAKs/HPK1 IC50 Ratio, B*

> print(dat)
                                    molecule  reported.measurement
 1  COc1nc2c(cc1Nc1ncc(Cl)c(N3CC(C)(CC(=O)O)c4ccccc43)n1)CN(C)CC2 (stereo not shown)                  >111
 2  COc1cc2c(cc1Nc1ncc(C(F)(F)F)c(-n3ccc4ccccc43)n1)CN(C)CC2                  >298
 3  COc1cc2c(cc1Nc1ncc(Cl)c(N3CC(C)(C)c4ccccc43)n1)CN(C)CC2                   218
 4  COc1cc2c(cc1Nc1ncc(Cl)c(N3CC(C)(C(N)=O)c4ccccc43)n1)CN(C)CC2 (stereo not shown)                   120
 5  COc1cc2c(cc1Nc1ncc(Cl)c(N3CCc4cc(C(F)F)ccc43)n1)CN(C)CC2                   413
 6  COc1cc2c(cc1Nc1ncc(Cl)c(-n3cc(CC(=O)O)c4ccccc43)n1)CN(C)CC2                   640
 7  COc1cc2c(cc1Nc1ncc(Cl)c(N3CC(C)(CC(=O)O)c4ccc(F)cc43)n1)CN(C)CC2 (stereo not shown) [Example 151]                   187
 8  COc1cc2c(cc1Nc1ncc(Cl)c(N3CC(C)(CC(=O)O)c4cc(F)c(F)cc43)n1)CN(C)CC2 (stereo not shown)                   430
 9  CCc1c[nH]c2ncc(-c3ccc(O)c(P(C)(C)=O)c3)cc12                    20
10  COc1cc2c(cc1Nc1ncc(Cl)c(N3CC(C(=O)O)C4(CCCC4)C3)n1)CN(C)CC2 (stereo not shown)                  1482
11  CC(C)c1c[nH]c2ncc(-c3ccc(N)c(P(C)(C)=O)c3)cc12                    76
12  COc1cc2c(cc1Nc1ncc(Cl)c(N3CC(C)(C(=O)O)c4ccccc43)n1)CN(C)CC2 (stereo not shown)                     5
13  CCc1c[nH]c2ncc(-c3ccc(C)c(P(C)(C)=O)c3F)cc12                    54
14  COc1cc2c(cc1Nc1ncc(Cl)c(N3CC(C)(CC(=O)O)c4ccccc43)n1)CN(C(C)C)CC2 (stereo not shown)                   192
15  COc1cc2c(cc1Nc1ncc(Cl)c(N3CC(C(=O)O)C4(CCCCC4)C3)n1)CN(C)CC2 (stereo not shown)                   995
16  CCc1c[nH]c2ncc(-c3ccc(C(=O)OC)c(P(C)(C)=O)c3)cc12                    11

====

Parameter: IC50. Scope: all listed entries.
# assayed system: JAK3 (Homo sapiens, UniProt P52333)
# Construct: purchased Thermo fisher PV3855
# Sequence (P52333 781-1124 limits assumed): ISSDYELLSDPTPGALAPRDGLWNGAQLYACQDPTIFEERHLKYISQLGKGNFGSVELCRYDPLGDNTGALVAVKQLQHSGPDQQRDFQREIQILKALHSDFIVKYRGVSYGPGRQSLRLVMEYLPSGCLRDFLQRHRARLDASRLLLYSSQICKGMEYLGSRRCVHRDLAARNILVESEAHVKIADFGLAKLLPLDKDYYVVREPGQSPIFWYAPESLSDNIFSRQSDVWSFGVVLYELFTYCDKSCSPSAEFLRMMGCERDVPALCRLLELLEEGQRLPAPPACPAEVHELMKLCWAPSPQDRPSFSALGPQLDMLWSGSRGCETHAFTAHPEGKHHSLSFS
# run description: JAK3 biochemical assay (ADP-GLO Kinase Assay)
# condition summary: B*: testing performed in a first testing facility; read-out: JAK3 IC50 (nM) Relative, B*
assay metric: IC50

> print(dat)
                                   compound  assay.metric  reported.measurement
1  CCOC(=O)CC1(C)CN(c2nc(Nc3cc4c(cc3OC)CCN(C)C4)ncc2Cl)c2ccccc21 (centres unmarked)          IC50             > 1000 nM
2  COc1cc2c(cc1Nc1ncc(Cl)c(N3CCc4cc(F)ccc43)n1)CN(C)CC2          IC50         100 to 500 nM
3  COc1cc2c(cc1Nc1ncc(Cl)c(N3CC(S(C)(=O)=O)c4ccccc43)n1)CN(C)CC2 (centres unmarked)          IC50        500 to 1000 nM
4  COc1cc2c(cc1Nc1ncc(Cl)c(-n3ncc4ccccc43)n1)CN(C)CC2          IC50             > 1000 nM
5  CNC(=O)C1(C)CN(c2nc(Nc3cc4c(cc3OC)CCN(C)C4)ncc2Cl)c2ccccc21 (centres unmarked)          IC50              ≤ 100 nM
6  COc1cc2c(cc1Nc1ncc(Cl)c(N3CC(C(=O)O)c4ccccc43)n1)CN(C)CC2 (single isomer, unassigned) [Example 96]          IC50              ≤ 100 nM
7  COc1nc2c(cc1Nc1ncc(Cl)c(N3CCc4ncccc43)n1)CN(C)CC2          IC50        500 to 1000 nM
8  CN1CCc2cc(Cl)c(Nc3ncc(Cl)c(N4CCc5ccccc54)n3)cc2C1          IC50             > 1000 nM

FYI, the data here is from patent US12612424B2.
